The following sequences are shown together with reported apparent KD of MS2 coat protein values.
System: MS2 coat protein
Assay Method Text: apparent KD of MS2 coat protein; designed switch direction (-1 OFF switch, 1 ON switch): -1; higher = weaker reporter binding
Run Conditions: input ligand: microRNA oligo, concentration not stated
Measured Metric: apparent KD of MS2 coat protein (nM)

ordered_residues="AAAAUAAAGAUGCCUUAAAACAUGAGGAUCACCCAUGUGAGUAAGGAUAUCGGAACCAAUCGCGACGAGAAGGUACUCGCGUGU [Ceestemaat] (Eterna round: R96, puzzle: Exclusion NG 3)" measured_metric="apparent KD of MS2 coat protein" obs_value=9.44
ordered_residues="AUUUAAUUUAAUAAGAUCACAUGAGGAUCACCCAUGUAUAUAUAGGAUAUCAGCUCGUGUAGAGCUGAGAAGGAUAUAUACUAU [ExNG3/7-B3] (Eterna round: R96, puzzle: Exclusion NG 3)" measured_metric="apparent KD of MS2 coat protein" obs_value=266
ordered_residues="UUAAUACAUGUAGGAUAUGCGUGGCGAAGCUAUGCAGAAGGACAUGAGGAUCACCCAUGUUCCAGCGUCCGCGUACGGAUGCAA [JL Eng1 1.21 mod 12] (Eterna round: R96, puzzle: Exclusion NG 1)" measured_metric="apparent KD of MS2 coat protein" obs_value=12.4
ordered_residues="UCUCGCUGGCGAGGAUAUCCUGUGCGGUUCCGGCUCGUGUCUGUUACAUGAGGAUCACCCAUGUGGGAGAAGGUGCCUGUGGCU [Design 94] (Eterna round: R96, puzzle: Exclusion NG 2)" measured_metric="apparent KD of MS2 coat protein" obs_value=22
ordered_residues="CUCCGGCGUGUAGGAUAUGGAUCCGAUUAGGAUCCAGAAGGACAUGAGGAUCACCCAUGUACAUGUAGACGGUCGUCACCGGGC [salish99_ExNG1_r04_208] (Eterna round: R96, puzzle: Exclusion NG 1)" measured_metric="apparent KD of MS2 coat protein" obs_value=32
